TEST_SUMMARY: gradient 5% acetonitrile 3 min, to 50% in 2 min, to 85% in 15 min, held 3 min, 100 µL/min
PROTOCOL_CONDITIONS: column: Zorbax Extend-C18 2.1 x 50 mm; eluents: water / acetonitrile, 0.1% formic acid
MEASURED_PROPERTY: RP-LC retention time (s)
Answers are plain numbers, in s.

Cc1cccc(S(=O)(=O)N2CCCN(c3ccc(=O)n(-c4ccc(F)cc4)n3)CC2)c1 :: 865

Can you give me RP-LC retention time for all of these, one by one?
1. Cc1ccc(C)c(N2CCN(c3ccnc(SCC(=O)Nc4ccccc4F)n3)CC2)c1
2. CC(NS(=O)(=O)c1ccc2c(c1)CCN2C(=O)N1CCCC1)C(=O)N1CCCCC1 (centres undefined)
3. CNC(=O)c1ccc(-c2nc3cc(NS(=O)(=O)c4cc(F)ccc4C)ccc3n2C)cc1
4. CCCn1c(=O)c(N2CCN(C(=O)CC(C)C)CC2)nc2ccccc21
5. O=C1COc2ccccc2N1Cc1nc(-c2ccc(F)c(Cl)c2)no1
6. CC(=O)c1cccc(NC(=O)Cn2cccc2-c2nc(-c3ccccc3)cs2)c1
7. COC(=O)C(Cc1ccccc1)NC(=O)Nc1c(-c2ccc(C)cc2)nc2ccccn12 (centres undefined)

Ans.
1010
720
832
1010
1090
1030
686

Qu. // returns reported RP-LC retention time for input CCCn1cc(C(=O)N2CCN(C3CCCCC3)CC2)c2cccnc21
Ans. 603
